biological target: c-Myc template DNA (c-myc quadruplex); test: Quadruplex binding / stop assay (Taq polymerase arrest, capillary electrophoresis); settings: read-out: Stop Data c-Myc μM; concentration at which 50% of the DNA was arrested (arrested:full-length 1:1)
observable: IC50 (µM)

INSERT INTO results (compound, observable, units_of_measure, reported_result) VALUES
  ('CN1CCCC1CCNC(=O)c1cn2c3c(c(N4CCC(CCCC5CCNCC5)CC4)c(F)cc3c1=O)Oc1cc3ccccc3cc1-2 (stereo not shown)', 'IC50', 'µM', 0.375);

A. CN1CCCC1CCNC(=O)c1cn2c3c(c(N)c(F)c(NCCCN4CCOCC4)c3c1=O)Oc1cc3ccccc3cc1-2 (stereo not shown)
B. N=C(N)NCCNC(=O)c1cn2c3c(c(NCCN4CCCC4)c(F)cc3c1=O)Oc1cc3ccccc3cc1-2
Ask: Compare A and B by numeric IC50 and name the larger one. Give the label under which the chosen entry appears.
Result: A

----------
experiment: Pharmacokinetic/toxicokinetic evaluation in rats; type: in vivo; settings: female, rat, plasma, iv, 7.6 mg/kg, female, Dose 5, read-out: AUC(0-24)
observable: AUC(0-t) (ng·h/mL)
// units = ng·h/mL; emit number, no label

Ask: Name the reported AUC(0-t) value associated with the compound CN1CCCC1CCNC(=O)c1cn2c3c(c(N4CCC(c5cnccn5)C4)c(F)cc3c1=O)Oc1cc3ccccc3cc1-2 (stereo not shown)
Result: 1200

----------
experiment: Pharmacokinetic/toxicokinetic evaluation in dogs; format: in vivo, beagle dogs; conditions: male, beagle, dog, plasma, iv, 1.2 mg/kg, male, Dose 5, 1.2 mg/kg IV, harmonic mean, read-out: T1/2 (converted)
observable: half-life (h)
// units = h; emit number, no label

Ask: Name the reported half-life value associated with the compound CN1CCCC1CCNC(=O)c1cn2c3c(c(N4CCC(c5cnccn5)C4)c(F)cc3c1=O)Oc1cc3ccccc3cc1-2 (stereo not shown)
Result: 5.2

----------
biological target: c-Myc template DNA (c-myc quadruplex); experiment: Quadruplex binding / stop assay (Taq polymerase arrest, capillary electrophoresis); details: read-out: Stop Data c-Myc μM; concentration at which 50% of the DNA was arrested (arrested:full-length 1:1)
observable: IC50 (µM)

Example compounds with recorded IC50:
INSERT INTO assay_data (compound, reported_result) VALUES
  ('O=C(NCCN1CCCC1)c1cn2c3c(c(N4CC5CCCNC5C4)ccc3c1=O)Oc1cc3ccccc3cc1-2 (stereo not shown)', 0.375),
  ('CC1(C)CC(NC(=O)c2cn3c4c(c(N5CC6CCCNC6C5)c(F)cc4c2=O)Oc2cc4ccccc4cc2-3)CC(C)(C)N1 (stereo not shown)', 0.5);

A. CN1CCN(CCCNC(=O)c2cn3c4c(c(N5CC[C@@H](NC(=O)CCN6CCCC6)C5)c(F)cc4c2=O)Oc2cc4c(cc2-3)oc2ccccc24)CC1
B. CN1CCCC1CCNc1c(F)cc2c(=O)c(C(=O)NCCN3CCOCC3)cn3c4cc5c(cc4oc1c23)c(=O)c1ccccc15 (stereo not shown)
Ask: Compare A and B by numeric IC50 and name the larger one. Give the label under which the chosen entry appears.
Result: A

----------
biological target: c-Myc template DNA (c-myc quadruplex); assay: Quadruplex binding / stop assay (Taq polymerase arrest, capillary electrophoresis); conditions: read-out: S DATA; Table 1D, stop assay data
observable: IC50 (µM)

Example compounds with recorded IC50:
INSERT INTO assay_data (compound, reported_result) VALUES
  ('CCN(CC)CCCC(C)NC(=O)c1cn2c3c(c(N4CCC(c5cnccn5)C4)c(F)cc3c1=O)Oc1ccccc1-2 (centres unmarked)', 3),
  ('O=C(NCCN1CCCC1)c1cn2c3c(c(N4CCN(C(=O)N5CCC[C@H]5C(=O)C(F)(F)F)CC4)c(F)cc3c1=O)Oc1cc(Cl)ccc1-2', 9.4),
  ('CN1CCCC1CCNC(=O)c1cn2c3c(c(SCCc4cnccn4)c(F)cc3c1=O)Oc1cc3ccccc3cc1-2 (centres unmarked)', 1.85),
  ('O=C(NCCN1CCCC1)c1cn2c3c(c(N4CCC(c5cnccn5)C4)c(F)cc3c1=O)Oc1cc3ccccc3cc1-2 (centres unmarked)', 1.12),
  ('CN1CCCC1CCNC(=O)c1cn2c3c(c(SCCc4cnccn4)c(F)cc3c1=O)Oc1c-2ccc2ccccc12 (centres unmarked)', 5.2),
  ('CN(C)CCCCNc1ccc2c(=O)c(C(=O)NC3CC(C)(C)NC(C)(C)C3)cn3c2c1Oc1cc2ccccc2cc1-3', 1.75);

1. NC1CCN(C(=O)c2cn3c4c(c(N5CC6CCCNC6C5)c(F)cc4c2=O)Oc2cc4ccccc4cc2-3)C1 (centres unmarked)
2. CC(C)N1CCN(c2c(F)cc3c(=O)c(C(=O)NCCN4CCCC4)cn4c3c2Oc2cccnc2-4)CC1
3. O=c1c2cn3c4ccccc4oc4c(N5CCC(c6cnccn6)C5)c(F)cc(c2nn1CCN1CCCC1)c43 (centres unmarked)
Ask: Descending sort on IC50 required. Put the labels in the requested order and list them out.
Result: 3, 2, 1

----------
assay: Pharmacokinetic/toxicokinetic evaluation in rats; format: in vivo; conditions: male, rat, plasma, iv, 7.1 mg/kg, Dose 5, 7.1 mg/kg IV once daily
observable: Cmax (ng/mL)
// units = ng/mL; emit number, no label

Ask: Name the reported Cmax value associated with the molecule CN1CCCC1CCNC(=O)c1cn2c3c(c(N4CCC(c5cnccn5)C4)c(F)cc3c1=O)Oc1cc3ccccc3cc1-2 (stereo not shown) [CX-3543]
Result: 485

----------
experiment: Pharmacokinetic/toxicokinetic evaluation in dogs; assay type: in vivo, beagle dogs; conditions: male, beagle, dog, plasma, iv, 1.2 mg/kg, male, Dose 1, 1.2 mg/kg IV, harmonic mean, read-out: T1/2 (converted)
observable: half-life (h)
// units = h; emit number, no label

Ask: Name the reported half-life value associated with the molecule CN1CCCC1CCNC(=O)c1cn2c3c(c(N4CCC(c5cnccn5)C4)c(F)cc3c1=O)Oc1cc3ccccc3cc1-2 (stereo not shown)
Result: 3.2

----------
molecular target: c-Myc template DNA (c-myc quadruplex); assay: Quadruplex binding / stop assay (Taq polymerase arrest, capillary electrophoresis); conditions: read-out: Stop Data c-Myc μM; concentration at which 50% of the DNA was arrested (arrested:full-length 1:1)
observable: IC50 (µM)

Example compounds with recorded IC50:
INSERT INTO measurements (compound, units_of_measure, reported_result) VALUES
  ('CN1CCCC1CCNC(=O)c1cn2c3c(c(N4CC[C@@H](NC(=O)CCN5CCCCC5)C4)c(F)cc3c1=O)Oc1cc3c(cc1-2)oc1ccccc13 (some centres unmarked)', 'µM', 0.5),
  ('CN1CCCC1CCNc1c(F)cc2c(=O)c(C(=O)N3CC[C@@H](N)C3)cn3c2c1Oc1c-3ccc2ccccc12 (some centres unmarked)', 'µM', 2.5),
  ('O=C(NCCCn1ccnc1)c1cn2c3c(c(NCCN4CCCC4)c(F)cc3c1=O)Oc1cc3c(cc1-2)oc1ccccc13', 'µM', 0.75),
  ('CN1CCN(CCC(=O)N[C@@H]2CCN(c3c(F)cc4c(=O)c(C(=O)NCCC5CCCN5C)cn5c4c3Oc3cc4c(cc3-5)oc3ccccc34)C2)CC1 (some centres unmarked)', 'µM', 0.75),
  ('CN(C)CCCCNC(=O)c1cn2c3c(c(N)c(F)c(N4CC[C@H](N)C4)c3c1=O)Oc1cc3ccccc3cc1-2', 'µM', 1.75),
  ('CC(C)(C)OC(=O)NC1CCN(c2c(F)c(N)c3c(=O)c(C(=O)NCCCN4CCOCC4)cn4c3c2Oc2cc3ccccc3cc2-4)C1 (centres unmarked)', 'µM', 1.75),
  ('CN(C)CCCCNc1c(F)cc2c(=O)c(C(=O)NCCCN3CCN(C)CC3)cn3c4cc5c(=O)c6ccccc6c(=O)c5cc4oc1c23', 'µM', 1.75),
  ('CN1CCCC1CCNC(=O)c1cn2c3c(c(N[C@H]4CN5CCC4CC5)c(F)cc3c1=O)Oc1cc3ccccc3cc1-2 (some centres unmarked)', 'µM', 0.375),
  ('CN(C)CCCCNC(=O)c1cn2c3c(c(N4CC[C@@H](NC(=O)CCN5CCCC5)C4)c(F)cc3c1=O)Oc1cc3c(cc1-2)oc1ccccc13', 'µM', 0.375),
  ('N=C(N)NCCCCNC(=O)c1cn2c3c(c(NCCCN4CCOCC4)c(F)cc3c1=O)Oc1cc3ccccc3cc1-2', 'µM', 1);

I. CN(C)CCCCNC(=O)c1cn2c3c(c(NCCC4CCCN4C)c(F)cc3c1=O)Oc1cc3ccccc3cc1-2 (centres unmarked)
II. CN1CCC[C@@H]1CCNC(=O)c1cn2c3c(c(N4CCC(c5cnccn5)C4)c(F)cc3c1=O)Oc1cc3ccccc3cc1-2 (some centres unmarked) [compound 356]
III. CC1(C)CC(NC(=O)c2cn3c4c(c(N5CCC(N)C5)c(F)cc4c2=O)Oc2cc4ccccc4cc2-3)CC(C)(C)N1 (centres unmarked) [compound 539]
IV. CN1CCCC1CCNC(=O)c1cn2c3c(c(NCCN4CCOCC4)c(F)cc3c1=O)Oc1cc3ccccc3cc1-2 (centres unmarked)
V. N[C@@H]1CCN(c2c(F)cc3c(=O)c(C(=O)NCCN4CCCC4)cn4c3c2Oc2cc3ccccc3cc2-4)C1
Ask: Please put the entries in order of rising IC50. Put the labels in the requested order and list them out.
Result: V, III, II, I, IV
